- Test System: B-Raf V600E (Homo sapiens, UniProt P15056, V600E)
- Sequence (P15056 whole entry V600E): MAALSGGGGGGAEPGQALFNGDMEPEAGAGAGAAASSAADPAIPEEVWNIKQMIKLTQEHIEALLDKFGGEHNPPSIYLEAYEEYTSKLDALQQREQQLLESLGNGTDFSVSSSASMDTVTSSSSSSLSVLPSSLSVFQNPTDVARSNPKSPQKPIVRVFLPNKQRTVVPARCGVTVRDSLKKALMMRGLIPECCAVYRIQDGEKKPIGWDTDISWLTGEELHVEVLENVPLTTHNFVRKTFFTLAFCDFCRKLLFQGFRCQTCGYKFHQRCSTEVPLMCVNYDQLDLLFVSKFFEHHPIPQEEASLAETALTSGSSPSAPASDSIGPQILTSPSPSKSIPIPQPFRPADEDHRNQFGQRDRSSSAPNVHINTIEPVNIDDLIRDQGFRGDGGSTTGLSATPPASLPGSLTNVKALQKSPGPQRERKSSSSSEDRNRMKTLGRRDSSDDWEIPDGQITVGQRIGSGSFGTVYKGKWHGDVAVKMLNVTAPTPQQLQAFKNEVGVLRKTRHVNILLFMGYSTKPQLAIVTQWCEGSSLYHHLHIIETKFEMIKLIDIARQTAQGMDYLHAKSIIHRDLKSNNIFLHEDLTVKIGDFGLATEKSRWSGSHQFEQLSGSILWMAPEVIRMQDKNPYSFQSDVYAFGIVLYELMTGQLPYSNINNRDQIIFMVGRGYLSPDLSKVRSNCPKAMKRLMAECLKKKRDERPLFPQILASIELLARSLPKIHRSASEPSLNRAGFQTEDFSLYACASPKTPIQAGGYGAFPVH
- Test Method Notes: B-Raf V600E biochemical kinase inhibition (AlphaScreen, biotin-MEK1 substrate)
- Details: 100 μM ATP
- Experimental: Compounds to be tested are diluted in dimethyl sulfoxide to a concentration of 0.1 mM. These are serially diluted 15 μL into 30 μL of dimethyl sulfoxide seven times in 96 well plates for a total of 8 dilution points, and for each dilution point 1 μL is added to a well of an assay plate. […] The reaction is started with addition of 10 μL of 200 μM ATP (i.e. final 100 μM ATP). […] The plates are incubated for 3 hours at room temperature and read on Envision reader (Perkin Elmer). […]
pIC50: −log10 of the molar value.
Readout: pIC50

For orientation, consider the following solved cases.
# Molecule, pIC50
records = [
    ("CCCS(=O)(=O)Nc1ccc(F)c(C(=O)c2c[nH]c3ncc(-c4ccc(S(=O)(=O)C(C)C)cc4)cc23)c1F [P-2223]", "> 8.00"),
    ("N#Cc1cnc2[nH]cc(C(=O)c3c(F)ccc(NS(=O)(=O)c4ccccc4F)c3F)c2c1 [P-2011]", "> 8.00"),
    ("CCCS(=O)(=O)Nc1ccc(F)c(C(=O)c2c[nH]c3ncc(-c4ccc(N5CCCC5)nc4)cc23)c1F [P-2231]", "> 8.00"),
    ("CCCS(=O)(=O)Nc1ccc(F)c(C(=O)c2c[nH]c3ncc(-c4ccc(N(C)C)nc4)cc23)c1F [P-2229]", "> 7.00"),
    ("CCCS(=O)(=O)Nc1ccc(F)c(C(=O)c2c[nH]c3ncc(C#CCOC)cc23)c1F [P-2239]", "> 8.00"),
    ("CCCS(=O)(=O)Nc1ccc(F)c(C(=O)c2c[nH]c3ncc(-c4cnc(N5CCCC5)nc4)cc23)c1F [P-2219]", "> 7.00"),
]

Shifting focus to the molecule that follows.
Tell me the measured pIC50 of COc1ncc(-c2cnc3[nH]cc(C(=O)c4c(F)ccc(NS(=O)(=O)c5cccc(F)c5)c4F)c3c2)cn1 [P-2045] , please.
> 7.00

====

- Test System: CYP3A4(BQ) (Homo sapiens)
- Sequence (P08684 whole entry): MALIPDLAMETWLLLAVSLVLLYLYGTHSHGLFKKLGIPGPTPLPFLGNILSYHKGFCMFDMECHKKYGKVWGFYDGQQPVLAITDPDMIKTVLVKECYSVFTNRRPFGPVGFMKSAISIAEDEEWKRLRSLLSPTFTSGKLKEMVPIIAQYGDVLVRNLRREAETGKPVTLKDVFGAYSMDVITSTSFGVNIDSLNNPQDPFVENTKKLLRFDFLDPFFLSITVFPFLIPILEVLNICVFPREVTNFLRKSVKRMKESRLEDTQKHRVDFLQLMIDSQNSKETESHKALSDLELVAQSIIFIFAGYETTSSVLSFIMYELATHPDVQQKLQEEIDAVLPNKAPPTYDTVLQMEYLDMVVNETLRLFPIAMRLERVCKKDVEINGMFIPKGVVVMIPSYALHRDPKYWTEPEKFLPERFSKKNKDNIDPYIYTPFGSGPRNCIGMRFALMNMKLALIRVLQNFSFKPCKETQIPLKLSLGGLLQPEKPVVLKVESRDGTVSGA
- Test Method Notes: CYP3A4(BQ) inhibition (fluorescent substrate)
- Format: in vitro ADME
- Details: read-out: Cyp IC50 3A4(BQ)
IC50 values, listed per item

For orientation, consider the following solved cases.
# Smiles String, Readout, Experimental Value
measured = [
    ("N#Cc1cnc2[nH]cc(C(=O)c3cccc(NS(=O)(=O)c4cccc(F)c4)c3F)c2c1", "IC50", "> 10 µM"),
    ("CCCS(=O)(=O)Nc1ccc(F)c(C(=O)c2c[nH]c3ncc(-c4ccc(C#CCN(CC)CC)nc4)cc23)c1F", "IC50", "5 to 10 µM"),
    ("COc1ccnc2[nH]cc(C(=O)c3c(F)ccc(NS(=O)(=O)c4c(F)cccc4F)c3F)c12", "IC50", "> 10 µM"),
    ("CCCS(=O)(=O)Nc1ccc(F)c(C(=O)c2c[nH]c3ncc(-c4cn[nH]c4)cc23)c1F", "IC50", "< 5 µM"),
    ("CCCS(=O)(=O)Nc1cccc(C(=O)c2c[nH]c3ncc(-c4cnc(OC)nc4)cc23)c1F", "IC50", "> 10 µM"),
]

Tell me the measured IC50 of "CCCS(=O)(=O)Nc1ccc(F)c(C(=O)c2c[nH]c3ncc(-c4ccc(S(N)(=O)=O)cc4)cc23)c1F" , please.
> 10 µM

Tell me the measured IC50 of "N#Cc1cnc2[nH]cc(C(=O)c3cccc(NS(=O)(=O)c4c(F)cccc4F)c3F)c2c1" , please.
> 10 µM

Tell me the measured IC50 of "CCCS(=O)(=O)Nc1ccc(F)c(C(=O)c2c[nH]c3ncc(C#CCOC)cc23)c1F" , please.
5 to 10 µM
